Molecular target: human CB2 receptors (Homo sapiens, UniProt P34972)
Construct: expressed in transfected cells; host or cells: CHO cells
Sequence (P34972 whole entry): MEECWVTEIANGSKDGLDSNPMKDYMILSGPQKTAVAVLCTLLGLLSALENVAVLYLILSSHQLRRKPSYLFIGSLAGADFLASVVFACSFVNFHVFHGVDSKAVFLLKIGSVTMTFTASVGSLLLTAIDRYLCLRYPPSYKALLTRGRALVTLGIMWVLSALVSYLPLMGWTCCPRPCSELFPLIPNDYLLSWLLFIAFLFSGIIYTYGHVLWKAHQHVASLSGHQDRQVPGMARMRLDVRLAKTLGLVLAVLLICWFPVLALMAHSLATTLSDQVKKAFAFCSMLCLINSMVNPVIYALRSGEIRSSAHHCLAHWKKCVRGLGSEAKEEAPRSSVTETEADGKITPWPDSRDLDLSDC
Assay: functional cAMP assay, human CB2
Format: cell-based
Settings: CHO cells expressing human CB2, cAMP; read-out: human CB2 EC50
Answer each item with its documented pEC50.
Hey, just a heads up that pEC50 is the negative log base 10 of the concentration in molar.

Please report the recorded pEC50 for CN(C)C1CCN(c2nc(C(C)(C)C)nc3c2nnn3Cc2ccccc2Cl)C1 (stereo not drawn) .
6.76

Which pEC50 is reported for this molecule? CC(C)(C)c1nc(N2CCC(F)(F)C2)c2nnn(Cc3nc(C(F)(F)F)no3)c2n1
8.25

Name the reported pEC50 value associated with the molecule CC(C)(C)c1nc(N2CCC(F)(F)C2)c2nnn(CCc3ccc(Cl)cc3)c2n1
8.19

Requested field: pEC50. Item: COC1CCN(c2nc(C(C)(C)C)nc3c2nnn3Cc2ccccc2Cl)C1 (stereo not drawn)
7.95

# pEC50 lookup, item CC1CCN(c2nc(C(C)(C)C)nc3c2nnn3Cc2ccccc2Cl)C1 (stereo not drawn)
7.89

Which pEC50 value is on record for CN(C)c1c(Cl)cncc1Cn1nnc2c(N3CCC(F)(F)C3)nc(C(C)(C)C)nc21 ?
9.52

Look up pEC50: COc1nc(C(C)(C)C)nc2c1nnn2Cc1ccccc1Cl
7.17

Look up pEC50: Cc1nnc(Cn2nnc3c(N4CC[C@H](O)C4)nc(C(C)(C)C)nc32)n1C
7.92

Fill in: pEC50 of CC(C)(C)c1nc(N2CC[C@H](O)[C@@H]2CO)c2nnn(Cc3cccnc3Cl)c2n1 is ___
8.39

---

Could you please report measured pEC50 for the items listed next?
Target: human CB1 receptors (Homo sapiens, UniProt P21554)
Construct: expressed in transfected cells; host or cells: CHO cells
Sequence (P21554 whole entry): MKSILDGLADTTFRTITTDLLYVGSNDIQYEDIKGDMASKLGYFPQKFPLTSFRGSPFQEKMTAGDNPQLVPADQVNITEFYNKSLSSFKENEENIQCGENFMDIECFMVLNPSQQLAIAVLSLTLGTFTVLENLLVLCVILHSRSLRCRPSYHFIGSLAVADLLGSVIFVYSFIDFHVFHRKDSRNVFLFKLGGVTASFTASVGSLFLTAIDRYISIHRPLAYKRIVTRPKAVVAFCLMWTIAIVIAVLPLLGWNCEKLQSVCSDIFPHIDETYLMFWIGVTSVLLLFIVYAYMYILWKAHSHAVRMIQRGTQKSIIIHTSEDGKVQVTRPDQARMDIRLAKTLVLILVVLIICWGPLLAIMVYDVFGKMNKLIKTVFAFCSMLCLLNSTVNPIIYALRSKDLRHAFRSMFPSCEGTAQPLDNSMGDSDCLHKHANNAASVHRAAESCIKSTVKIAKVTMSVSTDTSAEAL
Assay: functional cAMP assay, human CB1
Assay type: cell-based
Settings: CHO cells expressing human CB1, cAMP; read-out: human CB1 EC50
// scale note: pEC50 = -log10(conc_M); give the bare number

Look up pEC50: Cn1nncc1Cn1nnc2c(N3CC(F)(F)C(F)(F)C3)nc(C(C)(C)C)nc21
5.72

Item under review: CC(C)(C)c1nc(N2CC[C@@](C)(O)C2)c2nnn(Cc3ccccc3Cl)c2n1 . Reported pEC50?
6.07

Bench note: what pEC50 did CC(C)(C)c1nc(N2CC(F)(F)C(F)(F)C2)c2nnn(Cc3ccccc3Cl)c2n1 show?
6.20

State the recorded pEC50 for this entry: CC(C)(C)c1nc(N2CCC(F)(F)C2)c2nnn(Cc3cc(Cl)ccc3Cl)c2n1
6.56

---

For each of the molecules below, state its EC50.
Biological target: human CB2 receptors (Homo sapiens)
Construct: expressed in transfected cells; host or cells: CHO cells
Assay: functional cAMP assay, human CB2
Format: cell-based
Conditions: CHO cells expressing human CB2, cAMP; read-out: human CB2 EC50
Write the answer as a number in nM, unit excluded.

For CC(C)(C)c1nc(OC2CCC2)c2nnn(Cc3ccccc3Cl)c2n1 , what is its reported EC50?
12.2

// lookup EC50 for CC(C)(C)c1nc(N2CCC3(COC3)C2)c2nnn(Cc3ccccc3Cl)c2n1
9.8

GET /values?readout=EC50&item= Cc1cc(C2CCCN2c2nc(C(C)(C)C)nc3c2nnn3Cc2ccccc2Cl)on1 (stereo not drawn)
86.8

Any idea what EC50 was measured for CC(C)(C)c1nc(N2CCC(F)(F)C2)c2nnn(S(=O)(=O)c3ccccc3Cl)c2n1 ?
284

Give its EC50 value. Item: CC(C)(C)c1nc(N2CCC(F)(F)C2)c2nnn(Cc3ccccn3)c2n1
0.1

Returns the measured EC50 for the input molecule. Input: CC(C)(C)c1nc(N2C[C@@H](O)C[C@@H]2CO)c2nnn(Cc3ccccc3Cl)c2n1
4.5

Which EC50 value belongs to CC(C)(C)c1nc(N2CC[C@](C)(O)C2)c2nnn(Cc3ccccc3Cl)c2n1 ?
3

Bench note: what EC50 did CC(C)(C)c1nc(N2CCC(F)(F)C2)c2nnn(Cc3c(Cl)cccc3Cl)c2n1 show?
0.1

Any idea what EC50 was measured for CC(C)(C)c1nc(N2CCC(F)(F)C2)c2nnn(CC(=O)c3ccncc3)c2n1 ?
0.9

Fill blank: measured EC50 of the molecule CC(C)(C)c1nc(N2CCC[C@H](O)C2)c2nnn(Cc3ccccc3Cl)c2n1 is ____.
2.5

Name the recorded EC50 for CC(C)(C)c1nc(N2CCC(F)(F)C2)c2nnn(Cc3cc(F)c(F)cc3Cl)c2n1 .
0.8

Look up EC50 for this molecule: CC(C)(C)c1nc(N2C[C@@H](O)[C@H](O)C2)c2nnn(Cc3ccccc3Cl)c2n1 (relative stereo)
10.4

What does the record list as EC50 for Cn1nnnc1Cn1nnc2c(N3CC[C@@](C)(O)C3)nc(C(C)(C)C)nc21 ?
43.5

Can you look up the measured EC50 of CC(C)(C)c1nc(N2CC[C@@](C)(O)C2)c2nnn(Cc3ccccc3S(C)(=O)=O)c2n1 for me?
3

// lookup EC50 for Cn1nncc1Cn1nnc2c(N3CC4(COC4)C3)nc(C(C)(C)C)nc21
26.8

Which EC50 reading was recorded for the molecule Cc1c(Cn2nnc3c(N4CC[C@H](O)C4)nc(C(C)(C)C)nc32)ccc[n+]1[O-] ?
27.7

Any idea what its EC50 is? The molecule is CC(C)(C)c1nc(N2CCC(O)CC2)c2nnn(Cc3ccccc3Cl)c2n1
20.7

Give its EC50 value. Item: CC(C)(C)c1nc(N2CCC(c3ccccc3)C2)c2nnn(Cc3ccccc3Cl)c2n1 (stereo not drawn)
467

Look up EC50 for this molecule: CC(C)(C)c1nc(N2CC[C@](C)(O)C2)c2nnn(CCC(F)(F)F)c2n1
30.4

Requested read-out: EC50. Entry: CC(C)(C)c1nc(N2CC[C@@H](F)C2)c2nnn(Cc3ccccc3Cl)c2n1
0.3

Please give the measured EC50 for this molecule: CC1(C)CN(c2nc(C(C)(C)C)nc3c2nnn3Cc2ccccc2Cl)CCO1
75.4

Reported EC50 for CC(C)(C)c1nc(N2CCC(F)(F)C2)c2nnn(Cc3ccncc3)c2n1 : what is it?
0.2

# input molecule: CC(C)(C)c1nc(N2CCC(=O)C2)c2nnn(Cc3ccccc3Cl)c2n1 ; wanted: its EC50
1

# query: EC50 of entry CC(C)(C)c1nc(N2CCC(F)(F)C2)c2nnn(CC(=O)c3ccccn3)c2n1
0.4

Given CC(C)(C)c1nc(N2CC3(COC3)C2)c2nnn(Cc3ccccc3S(C)(=O)=O)c2n1 , state its recorded EC50.
0.3

Consider the molecule CC(C)(C)c1nc(N2CCC(F)(F)C2)c2nnn(Cc3c(Cl)ccc(Cl)c3Cl)c2n1 and give its measured EC50.
0.3

Requested read-out: EC50. Entry: Cc1nnc(Cn2nnc3c(N4CC[C@](C)(O)C4)nc(C(C)(C)C)nc32)o1
29.1

Entry CC(C)(C)c1nc(N2CCC(F)(F)C2)c2nnn(CC(=O)c3cccc(Cl)c3)c2n1 : reported EC50 = ?
0.4

Quick one: EC50 of CC(C)(C)c1nc(N2CC[C@H](O)C2)c2nnn(Cc3ncccc3Cl)c2n1 ?
0.4

Any idea what its EC50 is? The molecule is CC(C)(C)c1nc(N2CCC(F)(F)C2)c2nnn(CCc3ccccc3)c2n1
1.2

Query: EC50; subject: CC(C)(C)c1nc(N2CCCC23COC3)c2nnn(Cc3ccccc3Cl)c2n1
15

Requested field: EC50. Item: COC[C@@H]1CCCN1c1nc(C(C)(C)C)nc2c1nnn2Cc1ccccc1Cl
52.2

State the recorded EC50 for this entry: CC(C)(C)c1nc(N2CCCC2(C)C)c2nnn(Cc3ccccc3Cl)c2n1
12.5

---

Target: human CB2 receptors (Homo sapiens, UniProt P34972)
Construct: expressed in transfected cells; host or cells: CHO cells
Experiment: functional cAMP assay, human CB2
Format: cell-based
Conditions: CHO cells expressing human CB2, cAMP; read-out: human CB2 EC50
Consider the following compounds; for each one, report its pEC50.
Just the number, please; pEC50 means minus log10 of the concentration in mol/L.

Hello, I am looking for reported pEC50 with human CB2 receptors (Homo sapiens, UniProt P34972) for CC(Oc1nc(C(C)(C)C)nc2c1nnn2Cc1ccccc1Cl)C(F)(F)F (centres unmarked) [Example 214] . Could you help?
8.03

Identify the measured pEC50 of Cn1ncnc1Cn1nnc2c(N3CC[C@H](O)[C@@H]3CO)nc(C(C)(C)C)nc21 [Example 169] for human CB2 receptors (Homo sapiens, UniProt P34972).
6.70

Lab request: please report pEC50 under test system human CB2 receptors (Homo sapiens, UniProt P34972) for CC(C)(C)c1nc(N2CC[C@H](O)C2)c2nnn(Cc3cccc(Cl)c3Cl)c2n1 [Example 141]
9.30

Recall the recorded pEC50 for CC1(C)CCN(c2nc(C(C)(C)C)nc3c2nnn3Cc2ccccc2Cl)C1 [Example 189] with human CB2 receptors (Homo sapiens, UniProt P34972) and state it.
7.48

Lab note: need pEC50 for CC(C)(C)c1nc(N2CCCCC2)c2nnn(Cc3ccccc3Cl)c2n1 [Example 2] on human CB2 receptors (Homo sapiens, UniProt P34972), anyone have it?
8.80
